# Assay Info: Caco-2 transepithelial transport assay of digested red wine
# Format: in vitro ADME, human
# Protocol Conditions: human, Caco-2, apical to basolateral, digested Cabernet red wine; read-out: Apparent Permeability Coefficients, Cabernet
Observable: Papp at 6 h

Using the record for C[C@@H]1O[C@@H](O[C@H]2C(=O)c3c(O)cc(O)cc3O[C@@H]2c2ccc(O)c(O)c2)[C@H](O)[C@H](O)[C@H]1O , report its Papp at 6 h.
2.46 ×10⁻⁶ cm/s

Using the record for Oc1cc(O)c2c(c1)O[C@H](c1ccc(O)c(O)c1)[C@H](O)C2 [Epicatechin] , report its Papp at 6 h.
11.4 ×10⁻⁶ cm/s

Using the record for O=C(/C=C/c1ccc(O)c(O)c1)O[C@@H](C(=O)O)[C@@H](O)C(=O)O , report its Papp at 6 h.
8.93 ×10⁻⁶ cm/s

Using the record for O=c1c(O[C@@H]2O[C@H](CO)[C@@H](O)[C@H](O)[C@H]2O)c(-c2ccc(O)c(O)c2)oc2cc(O)cc(O)c12 , report its Papp at 6 h.
3.84 ×10⁻⁶ cm/s

Using the record for CCOC(=O)c1cc(O)c(O)c(O)c1 [Ethyl gallate] , report its Papp at 6 h.
17.4 ×10⁻⁶ cm/s

###

Below, each entry is listed alongside its reported Apparent Permeability Coefficients, Cabernet.
# System: Caco-2 cell monolayer
# Assay Info: Caco-2 transepithelial transport assay of digested red wine
# Assay type: in vitro ADME, human
# Protocol Conditions: apical to basolateral, digested Cabernet red wine
Marks after values point to notes of the source that are not given here.

Compound	Result
O=c1c(OC2O[C@H](CO)[C@@H](O)[C@H](O)[C@H]2O)c(-c2cc(O)c(O)c(O)c2)oc2cc(O)cc(O)c12 (stereo partly drawn) [Myricetin-3-glc]	1.38 ± 0.17 ^a ×10^−6 cm/s
O=c1c(O[C@@H]2O[C@H](CO)[C@@H](O)[C@H](O)[C@H]2O)c(-c2ccc(O)c(O)c2)oc2cc(O)cc(O)c12 [Quercetin-3-glc]	2.31 ± 0.27 ^a ×10^−6 cm/s
CC(=O)OCC1OC(Oc2cc3c(O)cc(O)cc3[o+]c2-c2cc(O)c(O)c(O)c2)C(O)C(O)C1O (stereo not drawn) [Delphinidin-3-acglc]	8.57 ± 1.26 ^a ×10^−6 cm/s
COc1cc(-c2oc3cc(O)cc(O)c3c(=O)c2O[C@@H]2O[C@H](CO)[C@@H](O)[C@H](O)[C@H]2O)ccc1O [Isorhamnetin-3-glc]	4.29 ± 0.33 ^a ×10^−6 cm/s
COc1cc(-c2[o+]c3cc(O)cc(O)c3cc2O[C@@H]2O[C@H](COC(C)=O)[C@@H](O)[C@H](O)[C@H]2O)cc(OC)c1O [Malvidin-3-acglc]	12.59 ± 2.16 ^a ×10^−6 cm/s

Now look at this entry.
Using the record for OC[C@H]1O[C@@H](Oc2cc3c(O)cc(O)cc3[o+]c2-c2cc(O)c(O)c(O)c2)[C@H](O)[C@@H](O)[C@@H]1O [Delphinidin-3-glc, delphinidin-3-glucoside] , report its Apparent Permeability Coefficients, Cabernet.
12.38 ± 2.37 ^a ×10^−6 cm/s

###

# Test system: Caco-2 cell monolayer
# Assay Info: Caco-2 transepithelial transport assay of digested red wine
# Format: in vitro ADME, human
# Protocol Conditions: Caco-2
Marks after values point to notes of the source that are not given here.
Observable: Apparent Permeability Coefficients, Cabernet

> print(dat)
                                   molecule                 target                       result
1  COc1cc(-c2oc3cc(O)cc(O)c3c(=O)c2O[C@@H]2O[C@H](CO)[C@@H](O)[C@H](O)[C@H]2O)cc(O)c1O [Laricitrin-3-glc]  Caco-2 cell monolayer   1.76 ± 0.17 ^a ×10^−6 cm/s
2  O.Oc1cc(O)c2c(c1)O[C@H](c1ccc(O)c(O)c1)[C@@H](O)C2 [Catechin]  Caco-2 cell monolayer   7.77 ± 1.14 ^a ×10^−6 cm/s
3  COc1cc(-c2oc3cc(O)cc(O)c3c(=O)c2O[C@@H]2O[C@H](CO)[C@@H](O)[C@H](O)[C@H]2O)cc(OC)c1O [Syringetin-3-glc]  Caco-2 cell monolayer   2.91 ± 0.21 ^a ×10^−6 cm/s
4  O=C(/C=C/c1ccc(O)cc1)O[C@@H](C(=O)O)[C@@H](O)C(=O)O [Coutaric acid]  Caco-2 cell monolayer  12.13 ± 1.19 ^a ×10^−6 cm/s
5  COc1cc(-c2[o+]c3cc(O)cc(O)c3cc2O[C@@H]2O[C@H](CO)[C@@H](O)[C@H](O)[C@H]2O)cc(O)c1O [Petunidin-3-glc]  Caco-2 cell monolayer  16.89 ± 2.96 ^a ×10^−6 cm/s

Using the record for COc1cc(/C=C/C(=O)OC(C(=O)O)C(O)C(=O)O)ccc1O (stereo not shown) [Fertaric acid] , report its Apparent Permeability Coefficients, Cabernet.
28.2 ± 4.11 ^a ×10^−6 cm/s

Using the record for COc1cc(-c2[o+]c3cc(O)cc(O)c3cc2OC2OC(COC(C)=O)C(O)C(O)C2O)cc(O)c1O (stereo not shown) [Petunidin-3-acglc] , report its Apparent Permeability Coefficients, Cabernet.
11.53 ± 2.01 ^a ×10^−6 cm/s

###

# Assay Info: PC content of red wine before and after in vitro simulated gastrointestinal digestion (HPLC)
# Assay type: in vitro ADME
# Protocol Conditions: Helanshan red wine, after simulated gastrointestinal digestion
Marks after values point to notes of the source that are not given here.
Below, each entry is listed alongside its reported PC Contents, Helanshan, After Digestion.

Molecule	Result
O=c1c(OC2O[C@H](CO)[C@@H](O)[C@H](O)[C@H]2O)c(-c2cc(O)c(O)c(O)c2)oc2cc(O)cc(O)c12 (stereo partly shown)	28.45 ± 1.51 ^b mg/L

Using the record for COc1cc(-c2[o+]c3cc(O)cc(O)c3cc2O[C@@H]2O[C@H](CO)[C@@H](O)[C@H](O)[C@H]2O)cc(OC)c1O [Malvidin-3-glc, malvidin-3-glucoside] , report its PC Contents, Helanshan, After Digestion.
88.2 ± 3.97 ^b mg/L

Using the record for COc1cc(-c2[o+]c3cc(O)cc(O)c3cc2O[C@@H]2O[C@H](COC(C)=O)[C@@H](O)[C@H](O)[C@H]2O)cc(OC)c1O , report its PC Contents, Helanshan, After Digestion.
30.5 ± 0.92 ^b mg/L

Using the record for O=c1c(O[C@@H]2O[C@H](CO)[C@@H](O)[C@H](O)[C@H]2O)c(-c2ccc(O)c(O)c2)oc2cc(O)cc(O)c12 [Quercetin-3-glc] , report its PC Contents, Helanshan, After Digestion.
145.43 ± 5.38 ^b mg/L

###

# Assay Info: PC content of red wine before and after in vitro simulated gastrointestinal digestion (HPLC)
# Format: in vitro ADME
# Protocol Conditions: Tianzhu red wine, after simulated gastrointestinal digestion
Marks after values point to notes of the source that are not given here.
Observable: PC Contents, Tianzhu, After Digestion

Molecule	PC Contents, Tianzhu, After Digestion
O=c1c(OC2O[C@H](CO)[C@@H](O)[C@H](O)[C@H]2O)c(-c2cc(O)c(O)c(O)c2)oc2cc(O)cc(O)c12 (some centres unmarked) [Myricetin-3-glc]	43.22 ± 1.34 ^b mg/L
COc1cc(-c2[o+]c3cc(O)cc(O)c3cc2O[C@@H]2O[C@H](CO)[C@@H](O)[C@H](O)[C@H]2O)cc(OC)c1O [Malvidin-3-glc, malvidin-3-glucoside]	103.8 ± 5.71 ^b mg/L
O=c1c(O[C@@H]2O[C@H](CO)[C@@H](O)[C@H](O)[C@H]2O)c(-c2ccc(O)c(O)c2)oc2cc(O)cc(O)c12 [Isoquercetin]	19.13 ± 0.69 ^b mg/L
OC[C@H]1O[C@@H](Oc2cc3c(O)cc(O)cc3[o+]c2-c2cc(O)c(O)c(O)c2)[C@H](O)[C@@H](O)[C@@H]1O [Delphinidin-3-glc, delphinidin-3-glucoside]	2.87 ± 0.11 ^c mg/L

Now look at this entry.
Using the record for COc1cc(-c2oc3cc(O)cc(O)c3c(=O)c2O[C@@H]2O[C@H](CO)[C@@H](O)[C@H](O)[C@H]2O)ccc1O [Isorhamnetin-3-glc] , report its PC Contents, Tianzhu, After Digestion.
9.88 ± 0.35 ^b mg/L

###

Below, each entry is listed alongside its reported PC Contents, Helanshan, Transmembrane.
# System: Caco-2 cell monolayer
# Assay Info: Caco-2 transepithelial transport assay of digested red wine
# Assay type: in vitro ADME, human
# Protocol Conditions: Helanshan red wine, digested sample, basolateral side of Caco-2 monolayer
Marks after values point to notes of the source that are not given here.

Molecule	Result
CCOC(=O)c1cc(O)c(O)c(O)c1 [Ethyl gallate]	8.64 ± 0.36 ^a mg/L
OC[C@H]1O[C@@H](Oc2cc3c(O)cc(O)cc3[o+]c2-c2cc(O)c(O)c(O)c2)[C@H](O)[C@@H](O)[C@@H]1O [Delphinidin-3-glc, delphinidin-3-glucoside]	0.53 ± 0.02 ^a mg/L
COc1cc(-c2[o+]c3cc(O)cc(O)c3cc2O[C@@H]2O[C@H](CO)[C@@H](O)[C@H](O)[C@H]2O)cc(OC)c1O [Malvidin-3-glc, malvidin-3-glucoside]	35.55 ± 1.46 ^a mg/L
O=c1c(O[C@@H]2O[C@H](CO)[C@@H](O)[C@H](O)[C@H]2O)c(-c2ccc(O)c(O)c2)oc2cc(O)cc(O)c12 [Isoquercetin]	0.72 ± 0.04 ^a mg/L

Now look at this entry.
Using the record for CC(=O)OCC1OC(Oc2cc3c(O)cc(O)cc3[o+]c2-c2cc(O)c(O)c(O)c2)C(O)C(O)C1O (stereo not drawn) , report its PC Contents, Helanshan, Transmembrane.
0.02 ± 0.001 ^a mg/L

The values you see were collected from paper PMC9562916.
